Assign IC50 at 5 days to each entry below.
Test: Cytotoxicity bioassay (MTT)
Type: cell-based
Details: African green monkey, Vero cells, five days, I = inactive at 10 µg/mL
Description: Vero cells were seeded in 96-well plates in RPM-I1640 medium supplemented with 10 % FBS and 1 % penicillin/streptomycin. The cells were allowed to grow for 24 h before adding the test compounds, dissolved in DMSO, to final concentrations of 10, 4, 0.2 and 0.08 µg/mL. […] All samples were incubated for five days before staining and examining for reduction of 3-(4,5-dimethylthiazol-2-yl)-2,5-diphenyltetrazolium bromide (MTT) and analyzed 4 h later in a color plate reader at 570 nm.
Numbers only, in µM.

State the recorded IC50 at 5 days for every item in the following list.
1. C[C@H]1[C@H](C)CC[C@]2(C(=O)O)CC[C@]3(C)C(=CC[C@@H]4[C@@]5(C)CC[C@H](O)C(C)(C)[C@@H]5CC[C@]43C)[C@H]12
2. O=c1c(O)c(-c2ccc(O)cc2)oc2cc(O)cc(O)c12

output:
1. 64.8
2. 155
